- experimental protocol: kinase inhibitors against Plasmodium liver-stage infection, cell-based, known kinase inhibitor set, luminescence, hepatoma host viability (AID 624392);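 further: infected cells incubated roughly two days before readout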
- stated conditions: Plasmodium liver stage in hepatoma cells, luciferase luminescence, concentration not given here
Activity calls are given as the source filed them. How the calls were made is not given here.
Hi there, use one of these labels in your reply, thanks! TRUE (active), FALSE (inactive)

[
  {
    "compound": "OCCn1c(-c2ccncc2)c(-c2ccc(F)cc2)c2ncccc21",
    "discrete label": "FALSE"
  },
  {
    "compound": "Fc1ccc(-c2ncn(CCCN3CCOCC3)c2-c2ccncc2)cc1",
    "discrete label": "FALSE"
  },
  {
    "compound": "CCOc1ccc2c(-c3ccnc(Nc4cc(OC)cc(C(F)(F)F)c4)n3)cnn2n1",
    "discrete label": "FALSE"
  },
  {
    "compound": "NS(=O)(=O)c1ccc(-c2cc3ccncc3cc2OCc2ccccc2)cc1",
    "discrete label": "FALSE"
  },
  {
    "compound": "COc1ccc(O)c(C(=O)c2ccc(C(=O)O[C@H]3CCCNC[C@@H]3NC(=O)c3ccncc3)cc2)c1F",
    "discrete label": "FALSE"
  }
]

Test call, this compound: COc1ccc2ncn(-c3cc(O[C@H](C)c4ccccc4Cl)c(C(N)=O)s3)c2c1
FALSE

Input O=C1Nc2ccc(-c3cccnc3)cc2/C1=C\c1cc(Br)c(O)c(Br)c1
FALSE

Input Fc1ccc(-c2ncn(C3CCNCC3)c2-c2ccnc(Oc3ccc(Cl)cc3)n2)cc1
FALSE

Input Cc1ccc(NC(=O)c2ccnc(N3CCCC3)c2)cc1-c1ccc(C(=O)NCC2CC2)cc1
FALSE
